Test system: PXR:RXRa (NR concentration 270 nM, RXRa partner concentration 90 nM)
Assay: PBM binding z-score (relative to random genomic background probes); higher = stronger binding; sequences stand for … in GC…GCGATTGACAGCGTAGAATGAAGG
Kindly return 1 if reported PBM binding z-score is no lower than 2; return -1 if it is lower.

[[record]]
residue_sequence = "CCTACTAGTTGACCATAAGGGCAACCGAAGCTCG"
class = -1

[[record]]
residue_sequence = "GATACAGTGTCAAGGCCAGAGTACGCGTATTGAT"
class = -1

[[record]]
residue_sequence = "GGAACGAGGGCAAGGTTGATAGCATCTGTCGACG"
class = -1

[[record]]
residue_sequence = "ATACCAAGGTGATCGTGAGGTCGTCGATACTAAC"
class = 1

[[record]]
residue_sequence = "TCTATTAGTGGATTAGGGCAACCGAAACAGCGGA"
class = -1

[[record]]
residue_sequence = "CGTCCAAGGACATAGGAGGTCAGTGAAGACAGAT"
class = 1

[[record]]
residue_sequence = "AGAACGAGGGCAGTGAGTTGATAGCACGGGTGGC"
class = -1

[[record]]
residue_sequence = "AATACAGTGTCACTAGGCCAGAGTAGGTACGAAT"
class = -1

[[record]]
residue_sequence = "GCATATAGGTAACACAAGGTGAAAGTCCGATTGT"
class = -1

[[record]]
residue_sequence = "CGAACTAGGTCATCCAGGATAGTGAATACATTGA"
class = -1

[[record]]
residue_sequence = "TCATATAGGTAATACAAGTGAAAGTCGGCATCTA"
class = -1

[[record]]
residue_sequence = "TCGCCTAGGTCATTCAGGGGCCAGTATAGAAAGC"
class = 1

[[record]]
residue_sequence = "ATGCCAAGGTGATCGTGAGGTCGTTGATACTAAC"
class = 1

[[record]]
residue_sequence = "TCATATAGATAATACAGGTGAAAGTCGGCATCTA"
class = -1

[[record]]
residue_sequence = "CCTCGGAGGACAACAAGAGGTCAGAGCTGCCAGA"
class = 1

[[record]]
residue_sequence = "CCTTACGAGTCACGAGGTTATAGCACGACGAGCG"
class = -1

[[record]]
residue_sequence = "GCTTACGGGTCAACGGTTATAGCATGAATAGAAT"
class = 1

[[record]]
residue_sequence = "CCTAATTGGTCAGGAGGTCACACACCGGATATGA"
class = 1

[[record]]
residue_sequence = "TCTATTAGTTGAAGGGCAACCGCCGAGTCCGTTT"
class = -1

[[record]]
residue_sequence = "AATACAGGGTCACTAGGCCAGAGTCGGTACGAAT"
class = 1

[[record]]
residue_sequence = "AGAACGAGGGCACGCGGAGTTGATAGCAGAGTAG"
class = -1

[[record]]
residue_sequence = "ATCTCTAGGTAACAGGTTCAGTGAAAGAGAGGAC"
class = -1

[[record]]
residue_sequence = "AGAATGAGGTTATACGTCGATCAGGGAAGAAAGT"
class = -1

[[record]]
residue_sequence = "CGAACTAGATCAGAACAGGACAGTGAAGGATGAT"
class = -1

[[record]]
residue_sequence = "CCGACTGGGGCAGAAAGGCTACCATACCATCCGG"
class = -1

[[record]]
residue_sequence = "CATGCTAGGTCAATGGTCAGCTAAAGCAGCTCGC"
class = -1

[[record]]
residue_sequence = "AACTCTAGGTAAAGTTCAGTGAAAGATCGATAGA"
class = -1

[[record]]
residue_sequence = "GCAGCTAGGTCAACTGATGGTCAGCTAAAGCTCG"
class = -1

[[record]]
residue_sequence = "TCTTGTAGATCAACAGGAGGTTATGAAAGATCGA"
class = -1

[[record]]
residue_sequence = "CTCGAAAGGTCGGTTCAGGTGAGTATACGGATAA"
class = 1

[[record]]
residue_sequence = "GGAATGAGGGCAAGTTGATAGCAGAGTTTGATGG"
class = -1

[[record]]
residue_sequence = "CCTGACGGGTCAAGGTTATAGCACGGGTGGTACG"
class = 1

[[record]]
residue_sequence = "ATCGAAAGGTCGAAGGGGAGTATACCCACCCGAA"
class = 1

[[record]]
residue_sequence = "CCTTACGGGTCACGAGGTTATCGCACGACGAGCG"
class = 1

[[record]]
residue_sequence = "ATCTCCAGGTAACCAAGTTCAGTGAATGCCGAAC"
class = 1

[[record]]
residue_sequence = "TCTCGGAGGACACGAAAGGCCAGAGCTCGACATC"
class = -1

[[record]]
residue_sequence = "CCTACTGGGCCATTCAGAGGTCATTGGTCATATG"
class = 1

[[record]]
residue_sequence = "CGTCCAAGGTCAAGGTCAGTGGAAGAGACTCGAA"
class = 1

[[record]]
residue_sequence = "GCATATAGGTAATACAACGTGAAAGTCCGATTGT"
class = -1

[[record]]
residue_sequence = "TCGGGTAGGTTAGGGGCATTCAGAATGGCGTCGA"
class = -1

[[record]]
residue_sequence = "ATCTCAAGGTAACAAGTTCAGTGAAAGAGAGGAC"
class = -1

[[record]]
residue_sequence = "ACTATTAGTTGAGACGAGGGCAACCGGTAGGTTG"
class = -1

[[record]]
residue_sequence = "CCTGCTGGGCCAAAGGTCATTGATTCCAATGCTC"
class = 1

[[record]]
residue_sequence = "ATCTATAGGTAAAAGTTCAGTGAATCCCGAGGAT"
class = 1

[[record]]
residue_sequence = "GCTATTTGGTCAGTAAAAGGTCACACACCGGTCG"
class = 1

[[record]]
residue_sequence = "CAAACTAGGTCAAAGTCAAAGTCGGTTTGTGCCA"
class = -1

[[record]]
residue_sequence = "GCTAGTTGGTCAGTAAAAGGTAACACACCGGTCG"
class = -1

[[record]]
residue_sequence = "TCGATTAGGTTACCAATGGGGCATTCAGCTTTCT"
class = -1

[[record]]
residue_sequence = "AGGATGAGGTTATACGTAGATCAGGGAAGAAAGT"
class = -1


###

System: LXRa homodimer (NR concentration 270 nM)
Assay: PBM binding z-score (relative to random genomic background probes); higher = stronger binding; sequences stand for … in GC…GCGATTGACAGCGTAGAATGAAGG
Each entry falls in a class defined on PBM binding z-score; the bands are low bracket = under 0.0001, middle bracket = from 0.0001 up to 0.7, high bracket = 0.7 and over

[[record]]
residue_sequence = "TTACCAAGGTGAAGGTCTTTGATCCCTCTGTAGA"
experimental_system = "LXRa homodimer (NR concentration 270 nM)"
class = "low bracket"

[[record]]
residue_sequence = "CCTAGTTGGTCAAGGTCACTCACGCTATAGGTAC"
experimental_system = "LXRa homodimer (NR concentration 270 nM)"
class = "high bracket"

[[record]]
residue_sequence = "CCGACTGGGGCAAGGTTACCATGACGCACAGCCA"
experimental_system = "LXRa homodimer (NR concentration 270 nM)"
class = "middle bracket"

[[record]]
residue_sequence = "ATCTCTTGGTAACCAAGTTCAGTGAATGCCGAAC"
experimental_system = "LXRa homodimer (NR concentration 270 nM)"
class = "middle bracket"

[[record]]
residue_sequence = "ATATGTAGGTTAGCTGGGGTCATTCAAACTAGGC"
experimental_system = "LXRa homodimer (NR concentration 270 nM)"
class = "high bracket"

[[record]]
residue_sequence = "CCTCACGGGTCACTGACAGGTTATAGCATTTGGA"
experimental_system = "LXRa homodimer (NR concentration 270 nM)"
class = "middle bracket"

[[record]]
residue_sequence = "TGTAGTTGGTCAAAGGTCACACACTCGAAATGCG"
experimental_system = "LXRa homodimer (NR concentration 270 nM)"
class = "high bracket"

[[record]]
residue_sequence = "CAGCCTAGGTCAGCGCCAGTATAGGAGGAACGTT"
experimental_system = "LXRa homodimer (NR concentration 270 nM)"
class = "low bracket"

[[record]]
residue_sequence = "GCTAGCAGGCCATTTCGGTCACTCAATGACGGGC"
experimental_system = "LXRa homodimer (NR concentration 270 nM)"
class = "low bracket"

[[record]]
residue_sequence = "ACTATAAGTTGACTTAGGGCAACCGATACGACGC"
experimental_system = "LXRa homodimer (NR concentration 270 nM)"
class = "middle bracket"


###

Listed sequences paired with reported PBM binding z-score
Test system: RARa homodimer (NR concentration 270 nM)
Assay: PBM binding z-score (relative to random genomic background probes); higher = stronger binding; sequences stand for … in GC…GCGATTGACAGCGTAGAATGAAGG
RESULT TYPE: PBM binding z-score

[[record]]
residue_sequence = "CGAACGAGGGAATGAGTTGATAGCAAATGCCGAT"
result_type = "PBM binding z-score"
experimental_result = -0.143

[[record]]
residue_sequence = "ACTAGCAGGCGAAGTTTGGGTCACTCAAACAAAG"
result_type = "PBM binding z-score"
experimental_result = -0.491

[[record]]
residue_sequence = "CATGCTAGGTCATGGTCAGCTAATCTACAGTATG"
result_type = "PBM binding z-score"
experimental_result = 0.163

[[record]]
residue_sequence = "ATCTCTAGGTAGAGATAGTTCAGTGAATGCAAAT"
result_type = "PBM binding z-score"
experimental_result = 0.194

[[record]]
residue_sequence = "CCTGCTAGGTCATGGTTAGCTAATCTACAGTATG"
result_type = "PBM binding z-score"
experimental_result = -0.015

[[record]]
residue_sequence = "GATACCGGGTCAAGGCCAGAGTACGCGTATTGAT"
result_type = "PBM binding z-score"
experimental_result = 0.054

